Please go through the items and note down their melting point.

# Compound, Experimental Endpoint, Result
data = [
    ("CS(=O)(=O)Nc1ccc(CCOc2ccc(C=C3SC(=O)NC3=O)cc2)cc1", "melting point", "130 °C"),
    ("COc1cccc(C(=C/C=C/C(=O)Oc2ccc([N+](=O)[O-])cc2)c2cccc(OC)c2)c1", "melting point", "95 to 97 °C"),
    ("Cn1c(=O)cnn(-c2cc(OCC#CBr)c(Cl)cc2F)c1=O", "melting point", "127 to 129 °C"),
    ("CCS(=O)(=O)N[C@H](C(=O)NCCc1ccc(OCc2ccccc2)cc1)C(C)C", "melting point", "133 to 134 °C"),
    ("CCOC1CC2(C)C(CCC3C4CCC(CC)C4(C)CC(N(C)C)C32)CC1O (stereo not given)", "melting point", "57 to 59 °C"),
    ("COc1ccccc1S(=O)(=O)c1ccc2c(c1)[C@@H](N1CCCC1=O)[C@H](O)C(C)(C)O2 (relative stereo)", "melting point", "196 to 198 °C"),
    ("CC1CCC(=NNc2ccc([N+](=O)[O-])cc2[N+](=O)[O-])c2ncc(C(=O)O)c(=O)n21 (stereo not given)", "melting point", "257 to 258 °C"),
    ("COc1cc(C(=O)c2ccc(C)cc2)cc(C(=O)O)c1OC", "melting point", "135 to 136 °C"),
]

// each compound listed below needs its melting point
1. CCCCCCCCCC(=O)NC(=O)OCc1nc(C(C)C)c(Sc2cc(Cl)cc(Cl)c2)n1Cc1ccncc1
2. CCCCCCCCCCC[C@@H]1CC(O)=CC(=O)O1

A:
84 to 86 °C
86 to 87 °C

----------
Please go through the items and note down their melting point.

# example entries with known answers
# Molecule, melting point
data = [
    ("CCNC(=O)c1ccc(C=O)cc1", "100 °C"),
    ("Cc1nnc2n1-c1ccc(C#CCn3c(C)nc4ccccc4c3=O)cc1C(c1ccccc1F)=NC2", "241 to 244 °C"),
    ("CC1=CC(=O)CC(C)(C)C1(O)/C=C/C(C)=C\\C=O (stereo not drawn)", "111 to 113 °C"),
    ("Cc1cccc2c1C(=O)c1c-2csc1N", "196 to 198 °C"),
]

// each molecule listed below needs its melting point
1. Nc1ncc(I)c(N)c1I
2. OC(CN1CCNC1=S)c1cccnc1 (stereo not drawn)
3. Cc1cn(C)cc(-c2ccccc2)c1=O

A:
1. 206 °C
2. 200 to 202 °C
3. 111 to 113 °C

// each molecule listed below needs its melting point
1. Cc1cc(C)nc(N(C(=O)Cl)c2cc(Cl)ccc2Cl)n1
2. Cc1cc(NC(=O)c2cnccc2C(F)(F)F)on1
3. CCn1cc(Cl)c(=O)[nH]c1=O
4. CC(C)CCCC(C)CCOc1cc(CO)c(-c2ccccc2)cc1CO (stereo not drawn)
5. O=C(CC(=O)c1cc(CN2CCOCC2)sc1Cl)NCc1ccc(Cl)cc1

A:
["121 to 123 °C", "53 to 55 °C", "217 to 220 °C", "112 to 115 °C", "109 to 112 °C"]

// each molecule listed below needs its melting point
1. COc1cc(C=O)cc2c1OC(C)(C)C2
2. O=C(OCc1cccnc1)c1ccc(F)cc1
3. COC(C)=CC(=O)Nc1cccc(N(C)C(N)=O)c1
4. CC(C)C(O)c1ccc2oc3ncccc3c(=O)c2c1 (stereo not drawn)
5. N#Cc1c(N)nc2ccccc2c1Cl
6. COc1cc(-c2cccc(C=C3SC(N4CCOCC4)=NC3=O)c2)cc(C23CC4CC(CC(C4)C2)C3)c1
7. CCn1cc(C=O)c(OCc2ccc(OCc3nc(-c4ccco4)oc3C)c(OC)c2)n1

A:
1. 58 to 59 °C
2. 142 to 143 °C
3. 166 °C
4. 160 °C
5. 210 °C
6. 234 to 238 °C
7. 103 to 104 °C

----------
Experimental Endpoint: melting point

# example entries with known answers
# Compound, Experimental Endpoint, Result
records = [
    ("CCOC(=O)C1=C(c2ccc(OC)c(OC)c2)c2ccccc2C1=O", "melting point", "130 °C"),
    ("CCOc1c(C(=O)Nc2ccccc2)csc1Cl", "melting point", "69 °C"),
]

// each compound listed below needs its melting point
1. CC(C)OC(=O)N1CCN(c2ccn3ncc(Br)c3n2)CC1
2. CN1C(=O)c2cccc(S(=O)(=O)Cl)c2C1=O

A:
["78 to 79 °C", "159 to 162 °C"]

----------
Experimental Endpoint: melting point

# Mol Smiles, melting point
records = [
    ("CCC(=O)N(CC)c1cccc(-c2ccnc3c(C#N)cnn23)c1", "161 to 162 °C"),
    ("O=C(CN1CCC(NC(=O)c2ccccc2)CC1)c1ccccc1", "168 °C"),
    ("O=C(CSCCNC(=O)c1ccco1)NCCCOc1cccc(CN2CCCCC2)c1", "60.5 to 61.5 °C"),
    ("CC(=O)CCn1nc(C)c(-c2ccc3c(c2)NC(=O)CO3)c1-c1ccc(F)cc1", "148 to 151 °C"),
]

Kindly review the next compound as well.
Per the records, this compound ( CCOC(=O)CCC(=O)CSc1nc2cc(Cl)c(F)cc2c(O)c1C(=O)OCC ) has melting point equal to 144 °C

----------
Experimental Endpoint: melting point

# example entries with known answers
# Compound, Result
measured = [
    ("O=CN1CCN=C1CC(c1ccccc1)c1ccccc1", "105 to 107 °C"),
    ("OC1C=CC2COC1O2 (configuration not stated)", "65.6 to 66.4 °C"),
    ("CC(=O)c1ccc(OC2CCN(C(=O)OC(C)(C)C)CC2)cc1F", "72 to 73 °C"),
]

// each compound listed below needs its melting point
1. Cc1cc(C)n(-c2ccc(C#N)nn2)n1
2. O=C(C=Cc1ccc(-c2ccc(OCCCN3CCCCC3)cc2)cc1)N1CCCCC1
3. CCC1(C(NC(=O)c2ccc(Cl)cc2)NC(=NC#N)Nc2cccnc2)COCOC1 (configuration not stated)
4. CCC(C)Cn1c(=O)n(C)c(=O)c2c1nc(C)n2C(=O)OC (configuration not stated)

A:
187 to 189 °C
146 to 150 °C
194 to 195 °C
110 to 112 °C

// each compound listed below needs its melting point
1. COC(=O)c1ccc(CN(C(C)C)S(=O)(=O)c2ccc(F)cc2)cc1
2. CCS(=O)(=O)N=CNCc1nc(-c2csc(N=C(N)N)n2)cs1
3. C=CCN1CCC(Nc2ccc(Cl)cc2)CC1
4. Nc1ccc(NC(=O)NC(=O)c2c(F)cccc2F)cc1
5. CCCCOc1cc(C=C(C)C(=O)O)ccc1-c1cccc(CNCC(=O)c2ccccc2)c1
6. COc1ccc(Br)c2ccc(C(F)(F)F)nc12
7. CCC(C)Nc1c(C(F)(F)F)cc([N+](=O)[O-])c(Cl)c1[N+](=O)[O-] (configuration not stated)

A:
1: 118 to 120 °C; 2: 216 to 217 °C; 3: 90 °C; 4: 240 °C; 5: 166 °C; 6: 84 to 85 °C; 7: 90.5 to 91.5 °C

// each compound listed below needs its melting point
1. O=C(CCl)c1ccc2c(c1)Cc1cc(C(=O)CCl)ccc1O2
2. CSC(=S)N1C(CO)Cc2c([nH]c3ccccc23)C1CO (configuration not stated)
3. O=C(O)Cc1cc(OCc2ccc3ccccc3n2)ccc1Nc1c(Cl)cccc1Cl
4. Cc1ccccc1N1CCN(CCCCCC(=O)O)CC1
5. CCC(=O)OC1c2ccccc2C(=O)N1c1ccc2ccc(Cl)nc2n1 (configuration not stated)
6. Cc1ccc(CN(C)C(=O)C23CC4CC(CC(C4)C2)C3)cc1
7. COc1cc(OC)cc(C(=CC#N)c2ccc(OC)c(N)c2)c1

A:
1. 200 to 201 °C
2. 179 to 180 °C
3. 162 °C
4. 125 °C
5. 160 °C
6. 93 to 95 °C
7. 93 to 95 °C

Per the records, this compound ( CN1C(=O)CN(c2cccc(C#N)c2)NC1=O ) has melting point equal to 174 to 178 °C

----------
Experimental Endpoint: melting point

# Compound, melting point
records = [
    ("N#CCc1ccc(C(=O)C2CC2)cc1", "86 to 87 °C"),
    ("COc1ccc(S(=O)(=O)C=CC(=O)O)cc1", "123 to 128 °C"),
    ("COc1cc2ncnc(N3CCN(C(=S)Nc4ccc(CNC(=O)OC(C)(C)C)cc4)CC3)c2cc1OC", "123 to 126 °C"),
    ("CNCCC1CN(c2c(F)cc3c(=O)c(C(=O)O)cn(C4CC4)c3c2F)CCO1 (stereo not given)", "243 to 251 °C"),
]

Per the records, this compound ( O=[N+]([O-])c1ccc(CS(=O)(=O)CCO)cc1CS(=O)(=O)CCO ) has melting point equal to 211 to 212 °C
